Reported values: IC50 for USP7 (Homo sapiens), one per item.

Would you please look over these solved cases?
>>> result("CCC(O)c1cc2nccc(-c3cc(Cl)cc4c3O[C@@H](c3onc5c3CN(C)CC5)C4)c2s1 (stereo partly drawn) [drawing 1521]")
"< 1000 nM"
>>> result("Cn1nc2c(c1[C@H]1Cc3cc(Cl)cc(-c4ccnc5cc(CN6C(=O)CCC6=O)sc45)c3O1)CNCC2")
"< 1000 nM"
>>> result("O=C([C@H]1Cc2cc(Cl)cc(-c3ccnc4cc(CN5C(=O)c6ccccc6C5=O)sc34)c2O1)N1CCNCC1")
"< 1000 nM"
>>> result("CN(C)C1CN(C(=O)[C@H]2Cc3cc(Cl)cc(-c4ccnc5cc(CO)sc45)c3O2)C1")
"< 1000 nM"
>>> result("CS(=O)(=O)N1CCc2noc([C@H]3Cc4cc(Cl)cc(-c5ncnc6ccoc56)c4O3)c2C1")
"1000 to 10000 nM"
>>> result("CNC1CCN(C(=O)[C@H]2Cc3cc(Cl)cc(-c4ccnc5cc(CO)sc45)c3O2)CC1")
"< 1000 nM"
>>> result("O=C(C1Cc2cc(Cl)cc(-c3ccnc(Cn4cnc5ccccc5c4=O)c3)c2O1)N1CCNCC1 (stereo not drawn)")
"10000 to 30000 nM"
>>> result("CN(C)[C@@H]1CCc2noc([C@H]3Cc4cc(Cl)cc(-c5ccnc6cc(CO)sc56)c4O3)c2C1")
"< 1000 nM"
>>> result("O=C([C@H]1Cc2cc(Cl)cc(-c3ccnc4cc(N5C(=O)CCC5=O)ccc34)c2O1)N1CCNCC1")
"< 1000 nM"
>>> result("O=C(C1Cc2cc(Cl)cc(-c3ccnc4cc(CO)ccc34)c2O1)N1CCNCC1 (stereo not drawn)")
"1000 to 10000 nM"

GET IC50 | system: USP7 (Homo sapiens) | item: `CN(C)Cc1ncoc1[C@H]1Cc2cc(Cl)cc(-c3ncnc4ccsc34)c2O1` 1000 to 10000 nM

GET IC50 | system: USP7 (Homo sapiens) | item: `CC(=O)NCc1cc2nccc(-c3cc(Cl)cc4c3O[C@@H](c3onc5c3CNCC5)C4)c2s1` < 1000 nM

GET IC50 | system: USP7 (Homo sapiens) | item: `O[C@@]1(c2cc3nccc(-c4cc(Cl)cc5c4O[C@@H](c4onc6c4CNCC6)C5)c3s2)CCOC1` < 1000 nM

GET IC50 | system: USP7 (Homo sapiens) | item: N#Cc1ccc2c(-c3cc(Cl)cc4c3OC(C(=O)N3CCNCC3)C4)ccnc2c1 (stereo not drawn) < 1000 nM

GET IC50 | system: USP7 (Homo sapiens) | item: Nc1nccc(-c2cc(Cl)cc3c2OC(C(=O)N2CCNCC2)C3)c1Cl (stereo not drawn) 1000 to 10000 nM

GET IC50 | system: USP7 (Homo sapiens) | item: O=C(C1Cc2cc(Cl)cc(-c3ccnc4[nH]ccc34)c2O1)N1CCC(c2ccc(O)cc2)CC1 (stereo not drawn) 10000 to 30000 nM

GET IC50 | system: USP7 (Homo sapiens) | item: `N#Cc1cc2nccc(-c3cc(Cl)cc4c3O[C@@H](C(=O)N3CCNCC3)C4)c2o1` 1000 to 10000 nM

GET IC50 | system: USP7 (Homo sapiens) | item: `CS(=O)(=O)c1ccc2c(-c3cc(Cl)cc4c3O[C@@H](c3onc5c3CNCC5)C4)ccnc2c1` 1000 to 10000 nM
